Sourced from paper PMC12136788

Would you kindly list binding signal for each of these binders?
Target: T1, UNK ZnF1-6 (called full-length) (human, UniProt Q9C0B0 30-357)
T1 sequence: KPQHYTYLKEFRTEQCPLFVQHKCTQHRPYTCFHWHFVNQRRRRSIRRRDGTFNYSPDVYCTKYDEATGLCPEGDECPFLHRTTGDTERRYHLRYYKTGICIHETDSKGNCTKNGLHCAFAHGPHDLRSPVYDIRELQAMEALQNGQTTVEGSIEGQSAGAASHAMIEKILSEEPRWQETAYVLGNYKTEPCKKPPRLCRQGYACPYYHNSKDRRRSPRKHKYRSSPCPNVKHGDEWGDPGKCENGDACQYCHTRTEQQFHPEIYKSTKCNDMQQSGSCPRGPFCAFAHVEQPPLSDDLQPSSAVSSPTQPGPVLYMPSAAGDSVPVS
Assay: nsRBNS (natural sequence RNA bind-n-seq); RBNS binding buffer (assumed for nsRBNS): 25 mM Tris pH 7.5, 150 mM KCl, 3 mM MgCl2, 0.01% Triton X-100, 500 ug/ml BSA, 20 U/ml SUPERase-In, 4 C; UNK is unkempt and MSI1 is Musashi-1; names of the RNAs are library labels; protein concentration not given here; high values mean tight binding
Whole data set: some 5,800 sequences, median “enrichment r” near 0.68, cut for the highest 2% near 11. Many of the other results were omitted from the sample, so the highest values are more common in it than they were.
Give bare numbers, in enrichment R.

Below, 2 binders whose answers are already recorded.
binder	units	binding signal
chr8:100258838:100258944:-|CDS|ENSG00000034677|unk|FALSE|unique (ssRNA) RNA: GGGAGUUCUACAGUCCGACGAUCAGUGAAUUUGAGGCUCCAUCCCUCAGUGACAGUAUGCCUUCUGUAGCAGAUUCUCACUCUAGUCAUUUUUCUGAAUUUAGUUGUUCUGACCUAGAAAGCAUGAAAACUUCUUGUAGUCAUCAACAGAGGAUUGAGCAUCA	enrichment R	13.2
chr11:64204363:64204470:+|3pUTR|ENSG00000168439|unk|FALSE|unique (ssRNA) RNA: GGGAGUUCUACAGUCCGACGAUCGCCCUCGAGUUCCAUGUCUCUUUCCCCUGCCCCUAGUUGCUGUCUCGGCUGCUCUCCCAUAGUUGGUUUUUUUUUUAUUUGGGGCAGUGGGCAUGUUAUGGGGAGGGGAGGGGGUUCUUCCAACAGAGGAUUGAGCAUCA	enrichment R	20.5

Moving on to another binder below.
Looking for the measured binding signal of chr1:88684422:88684524:+|5pUTR|ENSG00000065243|unk|total|mutant (ssRNA) RNA: GGGAGUUCUACAGUCCGACGAUCUCGAUGAACCGGACGGAAUAAGCCGCGCCUCCAGCAGGGGCUGCGCCUCCAUGAAUCCCCCGUUGUUUUUUUUUUUUUCUUUCUCUCCCCUCUCCUCACCCCCACCCCGAGCCCCGUCCCCAACAGAGGAUUGAGCAUCA , can you help?
3.43
